# Test system: STAT5 Y694 phosphorylation
# Assay explanation: Protein electrophoresis and blotting of STAT5 Y694 phosphorylation in Jurkat cells stimulated with human interferon beta
# Assay type: cell-based
# Condition details: 100 μM, 1 hour pretreatment, 20 ng/ml human interferon beta 30 minutes, pSTAT5/GAPDH
Measured attribute: Inhibiting Ratio (0% for vehicle control) (%)
Provide the reading as a plain figure in %.

Examples with answers:
molecule="O=C(Cc1ccccc1)N1CCC(n2c(=O)[nH]c3ccccc32)CC1 [Example X4]" measured=87.8
molecule="O=C(Cc1ccccc1C(F)(F)F)N1CCC(n2c(=O)[nH]c3ccccc32)CC1 [GEN1-030]" measured=94.0
molecule="O=c1[nH]c2ccccc2n1-c1ccn2c(=O)cc(Cc3ccc(F)cc3)cc2c1 [Example X9]" measured=100.0
molecule="O=c1[nH]c2ccccc2n1C1CCN(CCCC(c2ccc(F)cc2)c2ccc(F)cc2)CC1 [Example N1, Pimozide, reference compound]" measured=95.4
molecule="N#Cc1ccc2c(c1)[nH]c(=O)n2C1CCN(C(=O)Cc2ccc(C(F)(F)F)cc2)CC1 [GEN1-006]" measured=94.8

Quick note, Inhibiting Ratio (0% for vehicle control) for Nc1nc2ccccc2n1C1CCN(C(=O)Cc2ccc(C(F)(F)F)cc2)CC1 [GEN1-055] landed at 89.6

Quick note, Inhibiting Ratio (0% for vehicle control) for O=C(Cc1ccc(C2CC2)cc1)N1CCC(n2c(=O)[nH]c3ccccc32)CC1 [GEN1-032] landed at 94.9

Quick note, Inhibiting Ratio (0% for vehicle control) for O=C(Cc1ccc(C(F)(F)F)cc1)N1CC(n2c(=O)[nH]c3ccccc32)C1 [GEN1-023] landed at 93.6

Quick note, Inhibiting Ratio (0% for vehicle control) for O=C(Cc1ccc(C(F)(F)F)cc1)N1CCC(n2c(=O)[nH]c3cccc(C(F)(F)F)c32)CC1 [GEN1-013] landed at 97.0

Quick note, Inhibiting Ratio (0% for vehicle control) for O=C(Cc1ccc(C(F)(F)F)cc1)N[C@H]1CC[C@@H](n2c(=O)[nH]c3ccccc32)CC1 [GEN1-021] landed at 97.6

* * *

# Tested on: STAT5 Y694 phosphorylation
# Assay explanation: Protein electrophoresis and blotting of STAT5 Y694 phosphorylation in Jurkat cells stimulated with human interferon beta
# Assay type: cell-based
# Condition details: observed pSTAT5 bands at 10 μM and 100 μM
Measured attribute: Example of Effect 1: Inhibiting Ability (Protein Electrophoresis and Blotting)

Examples with answers:
smiles=O=C(Cc1ccc(N2CCOCC2)cc1)N1CCC(n2c(=O)[nH]c3ccccc32)CC1 system_under_test="STAT5 Y694 phosphorylation" measured=−
smiles=O=C(Cc1ccc(C(F)(F)F)cc1)N1CCC(n2c(=O)[nH]c3cccc([N+](=O)[O-])c32)CC1 system_under_test="STAT5 Y694 phosphorylation" measured=+
smiles=O=C(Cc1ccc(C(F)(F)F)cc1)N1CCC(n2c(=O)[nH]c3cc(C(F)(F)F)ccc32)CC1 system_under_test="STAT5 Y694 phosphorylation" measured=+
smiles=O=C(Cc1ccc(C(F)(F)F)cc1)N1CCC(n2c(=O)[nH]c3ccc(O)cc32)CC1 system_under_test="STAT5 Y694 phosphorylation" measured=+
smiles=O=C(Cc1ccccc1)N1CCC(n2c(=O)[nH]c3ccccc32)CC1 system_under_test="STAT5 Y694 phosphorylation" measured=−
smiles=O=C(Nc1ccc(C(F)(F)F)cc1)N1CCC(n2c(=O)[nH]c3cccc(C(F)(F)F)c32)CC1 system_under_test="STAT5 Y694 phosphorylation" measured=+
smiles=O=C(C(=O)N1CCC(n2c(=O)[nH]c3cccc(C(F)(F)F)c32)CC1)c1ccc(C(F)(F)F)cc1 system_under_test="STAT5 Y694 phosphorylation" measured=+
smiles=O=C(/N=c1\[nH]c2cccc(C(F)(F)F)c2n1C1CCN(C(=O)Cc2ccc3ncccc3c2)CC1)c1ccccc1 system_under_test="STAT5 Y694 phosphorylation" measured=−

Quick note, Example of Effect 1: Inhibiting Ability (Protein Electrophoresis and Blotting) for `O=C(Cc1ccc2ccccc2c1)N1CCC(n2c(=O)[nH]c3ccccc32)CC1` landed at +

Quick note, Example of Effect 1: Inhibiting Ability (Protein Electrophoresis and Blotting) for `O=C(Cc1ccc(C(F)(F)F)cc1)N1CCC(n2c(=O)[nH]c3c(N4CCOCC4)cccc32)CC1` landed at −

Quick note, Example of Effect 1: Inhibiting Ability (Protein Electrophoresis and Blotting) for `O=C(Cc1ccc(C(F)(F)F)cc1)N1CCC(N2Cc3ccccc3NC2=O)CC1` landed at +

Quick note, Example of Effect 1: Inhibiting Ability (Protein Electrophoresis and Blotting) for `O=C(Cc1ccc(C(F)(F)F)cc1)NCc1cnc2c(c1)CC(=O)N2` landed at −

Quick note, Example of Effect 1: Inhibiting Ability (Protein Electrophoresis and Blotting) for `COc1ccc2c(c1)[nH]c(=O)n2C1CCN(C(=O)Cc2ccc(C(F)(F)F)cc2)CC1` landed at +

Quick note, Example of Effect 1: Inhibiting Ability (Protein Electrophoresis and Blotting) for `O=C(Cc1ccc(C(F)(F)F)cc1)N1CCC(n2c(=O)[nH]c3ccc(-c4ccccc4)cc32)CC1` landed at +

Quick note, Example of Effect 1: Inhibiting Ability (Protein Electrophoresis and Blotting) for `O=C(Cc1ccc(C(F)(F)F)cc1)NCc1ccc2c(c1)C(=O)NC2` landed at +

Quick note, Example of Effect 1: Inhibiting Ability (Protein Electrophoresis and Blotting) for `O=C(C[C@H]1CC[C@H](C(F)(F)F)CC1)N1CCC(n2c(=O)[nH]c3ccccc32)CC1` landed at +

* * *

# Tested on: STAT5 Y694 phosphorylation
# Assay explanation: Protein electrophoresis and blotting of STAT5 Y694 phosphorylation in Jurkat cells stimulated with human interferon beta
# Type: cell-based
# Condition details: observed pSTAT5 bands at 10 μM and 100 μM
Measured attribute: Example of Effect 1: Inhibiting Ability (Protein Electrophoresis and Blotting)

compound="Nc1nc2ccccc2n1C1CCN(C(=O)Cc2ccc(C(F)(F)F)cc2)CC1 [GEN1-055]" measured=+
compound="O=C(Cc1ccc(C(F)(F)F)cc1)N1CCC(n2c(=O)n(O)c3ccccc32)CC1 [GEN1-059]" measured=−
compound="NS(=O)(=O)c1cccc2[nH]c(=O)n(C3CCN(C(=O)Cc4ccc(C(F)(F)F)cc4)CC3)c12 [GEN1-094]" measured=+
compound="O=C(Cc1ccc(C(F)(F)F)cc1)N1CCC(n2c(=S)[nH]c3ccccc32)CC1 [GEN1-050]" measured=+
compound="O=C(Cc1ccc(C(F)(F)F)cc1)N1CCC2(CC1)C(=O)NCN2c1ccccc1 [GEN1-049]" measured=−

Quick note, Example of Effect 1: Inhibiting Ability (Protein Electrophoresis and Blotting) for CC(=O)/N=c1\[nH]c2cccc(C(F)(F)F)c2n1C1CCN(C(=O)Cc2ccc3ncccc3c2)CC1 [GEN1-171] landed at −

Quick note, Example of Effect 1: Inhibiting Ability (Protein Electrophoresis and Blotting) for O=C(Cc1ccc(C(F)(F)F)cc1)N1CCC(n2c(=O)[nH]c3c(C(F)(F)F)cccc32)CC1 [GEN1-001] landed at +

Quick note, Example of Effect 1: Inhibiting Ability (Protein Electrophoresis and Blotting) for O=c1[nH]c2ccccc2n1C1CCN(S(=O)(=O)Cc2ccc(C(F)(F)F)cc2)CC1 [GEN1-068] landed at −

Quick note, Example of Effect 1: Inhibiting Ability (Protein Electrophoresis and Blotting) for O=C1CCN(C2CCN(C(=O)Cc3ccc(C(F)(F)F)cc3)CC2)c2ccccc2N1 [GEN1-102] landed at +

Quick note, Example of Effect 1: Inhibiting Ability (Protein Electrophoresis and Blotting) for N#CNc1nc2ccccc2n1C1CCN(C(=O)Cc2ccc(C(F)(F)F)cc2)CC1 [GEN1-061] landed at +

Quick note, Example of Effect 1: Inhibiting Ability (Protein Electrophoresis and Blotting) for O=C(C[C@H]1CC[C@@H](C(F)(F)F)CC1)N1CCC(n2c(=O)[nH]c3ccccc32)CC1 [GEN1-107] landed at +

Quick note, Example of Effect 1: Inhibiting Ability (Protein Electrophoresis and Blotting) for O=C1CN(C2CCN(C(=O)Cc3ccc(C(F)(F)F)cc3)CC2)c2ccccc2N1 [GEN1-052] landed at +

Quick note, Example of Effect 1: Inhibiting Ability (Protein Electrophoresis and Blotting) for O=C1CN(C2CCN(C(=O)Cc3ccc(C(F)(F)F)cc3)CC2)c2cccc(C(F)(F)F)c2N1 [GEN1-134] landed at −

* * *

# Test system: STAT5 Y694 phosphorylation
# Assay explanation: Protein electrophoresis and blotting of STAT5 Y694 phosphorylation in Jurkat cells stimulated with human interferon beta
# Assay type: cell-based
# Condition details: observed pSTAT5 bands at 10 μM and 100 μM
Measured attribute: Example of Effect 1: Inhibiting Ability (Protein Electrophoresis and Blotting)

compound="O=C(Cc1ccc2nccnc2c1)N1CCC(n2c(=O)[nH]c3cccc(C(F)(F)F)c32)CC1 [GEN1-140]" measured=+
compound="O=c1[nH]c2ccccc2n1C1CCN(C(=S)Cc2ccc(C(F)(F)F)cc2)CC1 [GEN1-128]" measured=+
compound="O=C(Cc1ccncc1)N1CCC(n2c(=O)oc3ccccc32)CC1 [Example P3]" measured=−
compound="O=C(CCc1ccc(C(F)(F)F)cc1)N1CCC(n2c(=O)[nH]c3ccccc32)CC1 [GEN1-018]" measured=+
